Parameter activity change, negative = inhibition: see the listing below.
- EXPERIMENT DESCRIPTION: NFAT Signaling Pathway (AID 444);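 further: carbachol stimulus at about its EC50 of 1 µM final; on the % scale 0 is the no-effect control and ±100 the full control effect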
- CONDITION: Jurkat NFAT-bla M1, carbachol, beta-lactamase ratio, 5 h; at 38 µM (top of the series)
Results filed as inconclusive are left out.
// units = %; emit number, no label

SMILES REPRESENTATION | UNIT SYMBOL | activity change, negative = inhibition
CC(N)=NCCCC[C@H](N)C(=O)O | % | -3.86
CO[C@]1(C2=NCCN2)COc2ccccc2O1 | % | -11
O=C(O)c1cc(=O)c2ccc(Cl)cc2[nH]1 | % | 3.07
CCOC(=O)[C@@]12C[C@@H]1/C(=N/O)c1ccccc1O2 | % | -7.55
N[C@@H](CO)C(=O)O | % | 1.99

Report activity change, negative = inhibition for O=C(NC[C@H]1CCCCN1)c1cc(OCC(F)(F)F)ccc1OCC(F)(F)F please.
-11
